Below are pIC50 values measured for Human immunodeficiency virus type 1 protease (Human immunodeficiency virus 1).
pIC50: −log10 of the molar value.
result_type: pIC50

- mol: "CC(C)C[C@@]1(C2=C(O)[C@](Cc3ccccc3)(C[C@H](O)[C@H](Cc3ccccc3)NC(=O)OC(C)(C)C)N=C2)N=CC([C@@H](Cc2ccccc2)C(N)=O)=C1O"
  recorded_measurement: 8.00
- mol: "CC(C)C[C@@]1(C2=C(O)[C@](Cc3ccccc3)(C[C@H](O)[C@H](Cc3ccccc3)NC(=O)O[C@@H]3CCOC3)N=C2)N=CC([C@@H](Cc2ccccc2)C(N)=O)=C1O"
  recorded_measurement: 8.89
